MEASUREMENT TARGET: human PD-L1 / Human PD-1 (Homo sapiens (Human))
Sequence (Q9NZQ7 19-239): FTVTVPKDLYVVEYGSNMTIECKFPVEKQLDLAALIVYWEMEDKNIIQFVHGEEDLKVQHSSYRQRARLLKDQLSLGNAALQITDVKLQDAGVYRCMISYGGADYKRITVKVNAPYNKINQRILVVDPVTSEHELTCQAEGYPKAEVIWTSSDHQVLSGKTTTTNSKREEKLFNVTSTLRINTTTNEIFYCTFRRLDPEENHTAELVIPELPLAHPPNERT
TEST DETAILS: Enzyme-Linked Immunosorbent Assay (ELISA), PD-1/PD-L1 binding
REPORTED CONDITIONS: plates coated with human PD-L1, biotinylated human PD-1 added
pIC50: −log10 of the molar value.
Field: pIC50. Provide a value for each of the compounds that follow.

CCOC(=O)CN1CCc2cc(-c3cccc(-c4cccc(OCCCN5[C@H](C)CC[C@H]5C)c4C)c3C)ccc2C1 | 5.00 to 6.00
Cc1c(OCCCN2[C@H](C)CC[C@H]2C)cccc1-c1cccc(-c2ccc3c(c2)CC(C(=O)O)NC3)c1C (stereo partly shown) [Compd 1.068] | > 6.00
COc1cc(-c2cccc(-c3cccc(-c4cc(F)c(CNCCC(=O)O)c(OC)c4)c3C)c2C)cc(F)c1CNCCC(=O)O | > 6.00
COc1ccc(-c2cccc(-c3cc(F)c(CN)c(OC)c3)c2C)c(F)c1 | 5.00 to 6.00
Cc1c(OCCCN2CCC(F)CC2)cccc1-c1cccc(-c2ccc(CN)cc2Cl)c1C | 5.00 to 6.00
COc1cc(-c2cccc(-c3cccc(-c4cc(F)c(CNCCO)c(OC)c4)c3C)c2C)cc(F)c1CN | > 6.00

Consider the additional compound presented here.
Entry under test: `Cc1c(OCCCN2CCC2(C)C)cccc1-c1cccc(-c2ccc3c(c2)CCNC3)c1Cl` . Its pIC50 was > 6.00
